# TARGET OR SYSTEM: recombinant human MAO-B (monoamine oxidase-B) (Homo sapiens)
# Construct: purchased Sigma-Aldrich
# Sequence (P27338 whole entry): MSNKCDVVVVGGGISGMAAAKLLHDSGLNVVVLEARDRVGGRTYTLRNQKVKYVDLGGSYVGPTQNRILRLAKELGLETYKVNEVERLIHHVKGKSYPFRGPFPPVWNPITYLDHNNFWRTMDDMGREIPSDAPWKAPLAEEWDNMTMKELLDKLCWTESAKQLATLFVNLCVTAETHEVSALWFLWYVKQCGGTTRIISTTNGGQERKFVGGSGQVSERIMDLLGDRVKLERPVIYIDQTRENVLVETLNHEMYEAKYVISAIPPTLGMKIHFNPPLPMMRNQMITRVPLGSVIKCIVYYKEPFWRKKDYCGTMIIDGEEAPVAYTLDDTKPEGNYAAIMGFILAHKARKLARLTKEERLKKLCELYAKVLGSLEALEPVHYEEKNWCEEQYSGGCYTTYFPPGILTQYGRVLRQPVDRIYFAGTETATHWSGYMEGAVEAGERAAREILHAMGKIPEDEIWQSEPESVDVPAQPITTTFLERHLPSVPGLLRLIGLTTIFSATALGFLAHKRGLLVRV
# EXPERIMENT SUMMARY: Activity on recombinant human MAO-B, method similar to the VAP-1 assay
# Format: biochemical
# ASSAY SETUP: substrate 1 mM benzylamine; read-out: Inhibitory Activity (IC50, nM) MAO-B
Structures can show the parent of a compound that is named as a salt.
Assign classes using reported IC50 values and the ranges class A: < 300 nM; class B: ≥ 300 nM and < 4000 nM; class C: ≥ 4000 nM, please.

> print(dat)
                                   molecule  category.label
1  COc1ccc(C#Cc2ccc(Cn3cnn(C/C(=C/F)CN)c3=O)s2)cc1 [Example 126, hydrochloride]         class A
2  NC/C(=C\F)Cn1ncn(Cc2ccc(-c3cc(F)c4[nH]c(=O)ccc4c3)s2)c1=O [Example 82, hydrochloride]         class C
3  NC/C(=C\F)Cn1ncn(Cc2ccc(-c3ccc(N4CCCC4)cc3)s2)c1=O [Example 20, hydrochloride]         class B
4  CS(=O)(=O)Nc1ccc(-c2ccc(Cn3cnn(C/C(=C/F)CN)c3=O)s2)cc1 [Example 7, hydrochloride]         class C

// return the class label for Cc1c(-c2ccc(Cn3cnn(C/C(=C/F)CN)c3=O)s2)ccc2c1NC(=O)CO2 [Example 92, hydrochloride] class B

// return the class label for NC/C(=C\F)Cn1ncn(Cc2ccc(/C=C/c3ccc(F)cc3)s2)c1=O [Example 117, hydrochloride] class A

// return the class label for `NC/C(=C\F)Cn1ncn(Cc2ccc(-c3cnn(C4CCNCC4)c3)s2)c1=O` class C

// return the class label for CN(C)c1ncc(-c2ccc(Cn3cnn(C/C(=C/F)CN)c3=O)s2)cn1 [Example 55, hydrochloride] class C

// return the class label for `CC(=O)N1CC=C(c2ccc(Cn3cnn(C/C(=C/F)CN)c3=O)s2)CC1` class B
